Biological target: Human immunodeficiency virus type 1 protease (Human immunodeficiency virus 1, UniProt Q72874, Q7K)
Assay: Inhibition of HIV1 protease Q7K mutant by FRET method
Conditions: read-out: Ki
pKi: −log10 of the molar value.
Measured pKi, listed per entry.
PROPERTY: pKi

In [3]: df
Out[3]:
                                   compound  measurement_qualifier  value
0  Cc1cccc(OS(=O)(=O)N(CC2CC2)C[C@@H](O)[C@H](Cc2ccccc2)NC(=O)C[C@H]2C=CCC2)c1                      =   5.69
1  COc1ccc(S(=O)(=O)N(CC(C)C)C[C@@H](O)[C@H](Cc2ccccc2)NC(=O)[C@H](C)NC(C)=O)cc1                      =   9.93
2  O=C(C[C@H]1C=CCC1)N[C@@H](Cc1ccccc1)[C@H](O)CN(CC1CC1)S(=O)(=O)c1ccco1                      <   5.00
3  CC[C@@H](C)CN(C[C@@H](O)[C@H](Cc1ccccc1)NC(=O)[C@@H](O)C(C)C)S(=O)(=O)c1ccc(OC)cc1                      =   9.21
4  CC[C@@H](C)CN(C[C@@H](O)[C@H](Cc1ccccc1)NC(=O)C[C@@H](O)CC)S(=O)(=O)c1ccc2ncsc2c1                      =  10.17
5  COc1cccc(S(=O)(=O)N(Cc2cccs2)C[C@@H](O)[C@H](Cc2ccccc2)NC(=O)c2cc(O)c(O)c(O)c2)c1                      =   5.94
6  COc1ccc(S(=O)(=O)N(CC(C)C)C[C@@H](O)[C@H](Cc2ccccc2)NC(=O)/C=C/C(C)=O)cc1                      =   9.77
7  CCCCCN(C[C@@H](O)[C@H](Cc1ccccc1)NC(=O)c1cccc(O)c1)S(=O)(=O)c1ccc(OC)cc1                      =   8.84
8  CC[C@@H](C)CN(C[C@@H](O)[C@H](Cc1ccccc1)NC(=O)C1(C(N)=O)CC1)S(=O)(=O)c1ccc(OC)cc1                      =   9.68

###

Target: Human immunodeficiency virus type 1 protease (Human immunodeficiency virus 1, UniProt Q72874, Q7K)
Assay: Inhibition of HIV1 protease Q7K mutant by FRET method
Conditions: read-out: Ki
pKi: −log10 of the molar value.
Label -1 if pKi falls below 9; label 1 in every other case.

                                   compound  class_label
0  CC[C@H](C)CN(C[C@@H](O)[C@H](Cc1ccccc1)NC(=O)[C@@H]1CN(c2cccc(C(C)=O)c2)C(=O)O1)S(=O)(=O)c1ccc(OC)cc1            1
1  CCCCCN(C[C@@H](O)[C@H](Cc1ccccc1)NC(=O)C1(C(N)=O)CC1)S(=O)(=O)c1ccc2ncsc2c1            1
2  COc1ccc(S(=O)(=O)N(CC(C)C)C[C@@H](O)[C@H](Cc2ccccc2)NC(=O)c2cccc(O)c2)cc1            1
3  CNC(=O)CCC(=O)N[C@@H](Cc1ccccc1)[C@H](O)CN(C[C@H](C)O)S(=O)(=O)c1cccc(OC)c1           -1
4  CC[C@H](C)CN(C[C@@H](O)[C@H](Cc1ccccc1)NC(=O)c1ccc(O)c(O)c1)S(=O)(=O)c1ccc(OC)cc1            1
5  Cc1cccc(OS(=O)(=O)N(C[C@H](C)O)C[C@@H](O)[C@H](Cc2ccccc2)NC(=O)C[C@H]2C=CCC2)c1           -1

###

Measured Ki, listed per entry.
Molecular target: Human immunodeficiency virus type 1 protease (Human immunodeficiency virus 1, UniProt Q72874, Q7K)
Assay: Inhibition of HIV1 protease Q7K mutant by FRET method
Conditions: read-out: pKi (converted)
PROPERTY: Ki (nM)

>>> df
                                   compound  result_unit   value
0  CNC(=O)CCC(=O)N[C@@H](Cc1ccccc1)[C@H](O)CN(C[C@@H](C)O)S(=O)(=O)c1cccc(OC)c1           nM    1170
1  CC[C@@H](C)CN(C[C@@H](O)[C@H](Cc1ccccc1)NC(=O)[C@@H](O)C(C)C)S(=O)(=O)c1ccc(OC)cc1           nM   0.617
2  CC[C@H](C)CN(C[C@@H](O)[C@H](Cc1ccccc1)NC(=O)c1cccc(F)c1C)S(=O)(=O)c1ccc2ncsc2c1           nM  0.0331
3  COc1cccc(S(=O)(=O)N(Cc2cccs2)C[C@@H](O)[C@H](Cc2ccccc2)NC(=O)c2cc(O)c(O)c(O)c2)c1           nM    1150
4  CC[C@H](C)CN(C[C@@H](O)[C@H](Cc1ccccc1)NC(=O)[C@H](C)NC(C)=O)S(=O)(=O)c1ccc(OC)cc1           nM  0.0457
5  CCC(=O)CCC(=O)N[C@@H](Cc1ccccc1)[C@H](O)CN(CC(C)C)S(=O)(=O)c1ccc2ncsc2c1           nM    0.12
6  CCCCCN(C[C@@H](O)[C@H](Cc1ccccc1)NC(=O)[C@@H](O)C(C)C)S(=O)(=O)c1ccc(OC)cc1           nM    2.45

###

Biological target: Human immunodeficiency virus type 1 protease (Human immunodeficiency virus 1, UniProt Q72874, Q7K)
Test: Inhibition of HIV1 protease Q7K mutant by FRET method
Details: read-out: Ki
pKi: −log10 of the molar value.
PROPERTY: pKi

>>> df
                                   compound  property  value
0  CCC(=O)CCC(=O)N[C@@H](Cc1ccccc1)[C@H](O)CN(C[C@H](C)CC)S(=O)(=O)c1ccc2ncsc2c1       pKi  10.20
1  CCCCCN(C[C@@H](O)[C@H](Cc1ccccc1)NC(=O)CCC(=O)CC)S(=O)(=O)c1ccc2ncsc2c1       pKi   8.79
2  COc1ccc(S(=O)(=O)N(CC(C)C)C[C@@H](O)[C@H](Cc2ccccc2)NC(=O)[C@@H](NC(C)=O)C(C)C)cc1       pKi  10.08
3  COc1ccc(S(=O)(=O)N(CC(C)C)C[C@@H](O)[C@H](Cc2ccccc2)Nc2cccc(F)c2C)cc1       pKi  10.03

###

Molecular target: Human immunodeficiency virus type 1 protease (Human immunodeficiency virus 1, UniProt Q72874, Q7K)
Assay: Inhibition of HIV1 protease Q7K mutant by FRET method
Conditions: read-out: pKi (converted)
PROPERTY: Ki (nM)

In [3]: df
Out[3]:
                                    compound  result_unit   value
 0  COc1cccc(S(=O)(=O)N(C[C@H]2CCCO2)C[C@@H](O)[C@H](Cc2ccccc2)NC(=O)[C@@H]2CN(c3ccccc3)C(=O)O2)c1           nM    41.7
 1  COc1ccc(S(=O)(=O)N(CC(C)C)C[C@@H](O)[C@H](Cc2ccccc2)NC(=O)[C@@H](NC(C)=O)C(C)C)cc1           nM  0.0832
 2  COc1cccc(S(=O)(=O)N(Cc2cccs2)C[C@@H](O)[C@H](Cc2ccccc2)NC(=O)[C@H]2CCCC[C@@H]2C)c1           nM     589
 3  CCC(=O)CCC(=O)N[C@@H](Cc1ccccc1)[C@H](O)CN(CC(C)C)S(=O)(=O)c1ccc(OC)cc1           nM    0.24
 4  CCCCCN(C[C@@H](O)[C@H](Cc1ccccc1)NC(=O)C[C@@H](O)CC)S(=O)(=O)c1ccc2ncsc2c1           nM   0.708
 5  COc1cccc(S(=O)(=O)N(C[C@H](C)O)C[C@@H](O)[C@H](Cc2ccccc2)NC(=O)c2cccc(C)n2)c1           nM    4790
 6  COc1ccc(S(=O)(=O)N(CC(C)C)C[C@@H](O)[C@H](Cc2ccccc2)NC(=O)[C@H](C)NC(C)=O)cc1           nM   0.117
 7  CNC(=O)CCC(=O)N[C@@H](Cc1ccccc1)[C@H](O)CN(C[C@H](C)O)S(=O)(=O)c1cccc(OC)c1           nM     759
 8  COc1ccc(S(=O)(=O)N(CC(C)C)C[C@@H](O)[C@H](Cc2ccccc2)NC(=O)/C=C/C(C)=O)cc1           nM    0.17
 9  CCCCCN(C[C@@H](O)[C@H](Cc1ccccc1)NC(=O)C1(C(N)=O)CC1)S(=O)(=O)c1ccc2ncsc2c1           nM   0.209
10  CCCCCN(C[C@@H](O)[C@H](Cc1ccccc1)NC(=O)CCC(=O)CC)S(=O)(=O)c1ccc(OC)cc1           nM    4.17
11  CCCCCN(C[C@@H](O)[C@H](Cc1ccccc1)NC(=O)CCC(=O)CC)S(=O)(=O)c1ccc2ncsc2c1           nM    1.62
12  CC(=O)/C=C/C(=O)N[C@@H](Cc1ccccc1)[C@H](O)CN(Cc1cccs1)S(=O)(=O)c1cnoc1C           nM   26300
13  CC[C@H](C)CN(C[C@@H](O)[C@H](Cc1ccccc1)NC(=O)[C@@H]1CN(c2cccc(C(C)=O)c2)C(=O)O1)S(=O)(=O)c1ccc2ncsc2c1           nM  0.0191
14  CCC(=O)CCC(=O)N[C@@H](Cc1ccccc1)[C@H](O)CN(C[C@H](C)CC)S(=O)(=O)c1ccc2ncsc2c1           nM  0.0631
